Entry source: patent US6593334B1

The molecules listed here are annotated with their Cell Line/ED50 IA9-PTX10.
System: 1A9-PTX10 (paclitaxel resistant sub-line with mutated β-tubulin)
Test: Human tumor cell replication assay (sulforhodamine B), PTX10
Type: cell-based
Conditions: paclitaxel-resistant IA9-PTX10 cells, three days of continuous exposure, SRB assay
State just the number; it will be interpreted in log10 M.

Completed entries (count: 4):
I have this molecule here, CCC1(O)C(=O)OCc2c1cc1n(c2=O)Cc2c-1nc1ccccc1c2C=NCCCC(=O)OC1CC2OCC2(OC(C)=O)C2C(OC(=O)c3ccccc3)C3(O)CC(OC(=O)C(O)C(NC(=O)c4ccccc4)c4ccccc4)C(C)=C(C(OC(C)=O)C(=O)C12C)C3(C)C (centres unmarked) , and I need its recorded Cell Line/ED50 IA9-PTX10.
−10.5

I have this molecule here, CC[C@@]1(O)C(=O)OCc2c1cc1n(c2=O)Cc2cc3ccccc3nc2-1 , and I need its recorded Cell Line/ED50 IA9-PTX10.
−9.4

I have this molecule here, CCC1(O)C(=O)OCc2c1cc1n(c2=O)Cc2c-1nc1ccccc1c2C=NCCC(=O)OC1CC2OCC2(OC(C)=O)C2C(OC(=O)c3ccccc3)C3(O)CC(OC(=O)C(O)C(NC(=O)c4ccccc4)c4ccccc4)C(C)=C(C(OC(C)=O)C(=O)C12C)C3(C)C (centres unmarked) , and I need its recorded Cell Line/ED50 IA9-PTX10.
−10.9

I have this molecule here, CC(=O)O[C@H]1C(=O)[C@@]2(C)[C@H]([C@H](OC(=O)c3ccccc3)[C@]3(O)C[C@H](OC(=O)[C@H](O)[C@@H](NC(=O)c4ccccc4)c4ccccc4)C(C)=C1C3(C)C)[C@]1(OC(C)=O)CO[C@@H]1C[C@@H]2O [Paclitaxel, reference compound] , and I need its recorded Cell Line/ED50 IA9-PTX10.
−11.7

New cases:
I have this molecule here, CCC1(O)C(=O)OCc2c1cc1n(c2=O)Cc2c-1nc1ccccc1c2C=NCCCCCC(=O)OC1CC2OCC2(OC(C)=O)C2C(OC(=O)c3ccccc3)C3(O)CC(OC(=O)C(O)C(NC(=O)c4ccccc4)c4ccccc4)C(C)=C(C(OC(C)=O)C(=O)C12C)C3(C)C (centres unmarked) , and I need its recorded Cell Line/ED50 IA9-PTX10.
−10.5
